- assayText: qHTS of pediatric cancer cell lines to identify multiple opportunities for drug repurposing: Primary screen for SK-N-MC cells (AID 1347093)
- experimentalSetup: SK-N-MC viability, CellTiter-Glo luminescence, 48 h; series mostly up to 46 µM
Inconclusive results are not listed. Active and inactive are the calls of the source. The call rests on the fitted dose curve; in most records, active means well fitted cell-killing curve with a large enough effect; inconclusive means small, poorly fitted or top-dose-only effect; inactive means no such curve, though single readings can be large or run the other way.
Pick from active, inactive when you respond.

query: Which outcome did this test record for the compound `O=C1OC2(c3ccc(O)cc3Oc3cc(O)ccc32)c2ccccc21` ?
result: inactive

query: Which outcome did this test record for the compound `CCCCCCCCCCCCCCCCOP(=O)([O-])OCC[N+](C)(C)C` ?
result: active

query: Which outcome did this test record for the compound `Cc1nc2n(c(=O)c1CCN1CCC(c3noc4cc(F)ccc34)CC1)CCC[C@H]2O` ?
result: inactive

query: Which outcome did this test record for the compound `CN(C)/N=N/c1nc[nH]c1C(N)=O` ?
result: active

query: Which outcome did this test record for the compound `CCOC(=O)c1cccc(N)c1` ?
result: inactive

###

- targetOrSystem: Protein phosphatase 1D (Homo sapiens) (UniProt O15297)
- Sequence (O15297 whole entry, looked up): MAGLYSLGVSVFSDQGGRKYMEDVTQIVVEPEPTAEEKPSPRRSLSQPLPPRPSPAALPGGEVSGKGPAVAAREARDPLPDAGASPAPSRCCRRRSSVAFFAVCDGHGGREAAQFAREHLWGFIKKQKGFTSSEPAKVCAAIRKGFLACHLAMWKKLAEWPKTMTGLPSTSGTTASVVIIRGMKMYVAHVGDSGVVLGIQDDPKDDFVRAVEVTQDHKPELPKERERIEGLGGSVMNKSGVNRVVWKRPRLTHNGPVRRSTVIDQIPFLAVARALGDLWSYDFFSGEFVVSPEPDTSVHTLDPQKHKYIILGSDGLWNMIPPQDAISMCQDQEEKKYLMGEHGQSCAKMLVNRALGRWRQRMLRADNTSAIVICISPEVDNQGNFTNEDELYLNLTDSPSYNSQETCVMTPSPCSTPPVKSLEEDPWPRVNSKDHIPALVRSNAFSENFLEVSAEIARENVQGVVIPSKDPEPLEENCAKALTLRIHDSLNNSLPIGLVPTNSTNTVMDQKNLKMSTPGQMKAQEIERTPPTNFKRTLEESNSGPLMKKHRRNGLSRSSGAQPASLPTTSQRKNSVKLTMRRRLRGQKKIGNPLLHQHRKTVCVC
- assayText: Rhodamine-PBP qHTS Assay for Modulators of WT P53-Induced Phosphatase 1 (WIP1) (AID 1347425); further: % of control where 0% means no effect
- experimentalSetup: recombinant WIP1, Rhodamine-PBP phosphate fluorescence, real-time; series mostly up to 57.5 µM
Inconclusive results are not listed. Active and inactive are the calls of the source. Calls come from the whole dose curve; as a rule, active = well fitted curve in the direction sought with a large enough effect; inconclusive = small, poorly fitted or top-dose-only effect, or another doubt; inactive = no such curve, though single readings can be large or run the other way.
measuredMetric: activity change, negative = inhibition

smilesStr: CC[N+](CC)(CCNC(=O)C(=O)NCC[N+](CC)(CC)Cc1ccccc1Cl)Cc1ccccc1Cl
targetOrSystem: Protein phosphatase 1D (Homo sapiens) (UniProt O15297)
measuredMetric: activity change, negative = inhibition
testValue: inactive

smilesStr: CCCCCCCCCCCCCCNCCO
targetOrSystem: Protein phosphatase 1D (Homo sapiens) (UniProt O15297)
measuredMetric: activity change, negative = inhibition
testValue: inactive

smilesStr: CC(=O)Oc1ccc(C(c2ccc(OC(C)=O)cc2)c2ccccn2)cc1
targetOrSystem: Protein phosphatase 1D (Homo sapiens) (UniProt O15297)
measuredMetric: activity change, negative = inhibition
testValue: inactive

smilesStr: CCn1cc(C(=O)O)c(=O)c2cnc(N3CCCC3)nc21
targetOrSystem: Protein phosphatase 1D (Homo sapiens) (UniProt O15297)
measuredMetric: activity change, negative = inhibition
testValue: -2.4% [at 11.5 µM] (inactive)

smilesStr: Cc1cc(N)c2cc(NC(=O)Nc3ccc4nc(C)cc(N)c4c3)ccc2n1
targetOrSystem: Protein phosphatase 1D (Homo sapiens) (UniProt O15297)
measuredMetric: activity change, negative = inhibition
testValue: inactive

Attention now turns to another entry.
query: Field request: activity change, negative = inhibition | item: `CCCCS(=O)(=O)N[C@@H](Cc1ccc(OCCCCC2CCNCC2)cc1)C(=O)O`
result: inactive

###

- assayText: P-glycoprotein substrates identified in KB-8-5-11 adenocarcinoma cell line, qHTS therapeutic library screen (AID 1346987); further: nearly all actives have a fitted effect of over 65% in size
- experimentalSetup: KB-8-5-11 (P-gp overexpressing) viability, CellTiter-Glo, 72 h; series mostly up to 44.5 µM
Results filed as inconclusive are left out. Activity calls are given as the source filed them. Calls come from the whole dose curve; as a rule, active = well fitted inhibition curve with a large enough effect; inconclusive = small, poorly fitted or top-dose-only effect; inactive = flat fitted curve, though single readings scatter.
Pick from active, inactive when you respond.

compound: COC(=O)[C@@H]1CC2=CC(=O)CC[C@]2(C)[C@@]23O[C@@H]2C[C@@]2(C)[C@@H](CC[C@@]24CCC(=O)O4)[C@H]13
classLabel: inactive
--
compound: O=C(O)c1cc2cc(Cc3cccnc3)ccc2o1
classLabel: inactive
--
compound: CC(O)C(=O)O (stereo not drawn)
classLabel: inactive
--
compound: CC(=O)O[C@]1(C(C)=O)CC[C@H]2[C@@H]3C[C@H](C)C4=CC(=O)CC[C@]4(C)[C@H]3CC[C@@]21C
classLabel: active
--
compound: CC(C)(C)CC(C)(C)c1ccc(O)c(Cc2ccc(Cl)cc2Cl)c1
classLabel: active
--
compound: CN1[C@@H]2CC[C@H]1CC(OC(=O)c1c[nH]c3ccccc13)C2 (stereo partly drawn)
classLabel: inactive
--
compound: CCCN1CCCC[C@H]1C(=O)Nc1c(C)cccc1C
classLabel: inactive
--
compound: CC1(C)O[C@@H]2[C@@H](CO[C@@]3(COS(N)(=O)=O)OC(C)(C)O[C@@H]23)O1
classLabel: inactive
--
compound: C[C@H](CCC(=O)O)[C@H]1CC[C@H]2[C@@H]3C(=O)C[C@@H]4CC(=O)CC[C@]4(C)[C@H]3CC(=O)[C@]12C
classLabel: inactive
--
compound: OCc1ccccc1O
classLabel: inactive

query: Which outcome did this test record for the compound `CN(C)C(=S)SC(=S)N(C)C` ?
result: inactive

query: Which outcome did this test record for the compound `CN(C)CCOc1ccccc1Cc1ccccc1` ?
result: inactive

query: Which outcome did this test record for the compound CCOc1ccc(NC(=O)CC(C)O)cc1 (stereo not drawn) ?
result: inactive

query: Which outcome did this test record for the compound `COc1ccc(CCN2CCC(Nc3nc4ccccc4n3Cc3ccc(F)cc3)CC2)cc1` ?
result: active

###

The following compounds are shown together with reported Potency values.
- assayText: qHTS profiling for inhibitors of Plasmodium falciparum proliferation (AID 504749); further: potency means the concentration at half of the fitted maximal effect; nearly all actives have a fitted effect of over 60% in size
- experimentalSetup: P. falciparum in erythrocytes, SYBR Green DNA, 72 h; parasite line A
Results filed as inconclusive are left out. Active and inactive are the calls of the source. Calls follow the shape of the dose curve; as a rule, active = well fitted inhibition curve with a large enough effect; inconclusive = small, poorly fitted or top-dose-only effect; inactive = flat fitted curve, though single readings scatter. Numbered stars: 1 amine (or outer) side, 2 acyl side, 3 side chain; on linkers, the order of the positions; unused ones are H or OH. Bridge positions count the residues as written; N and C are the ends. Square brackets hold non-standard residues; d marks the D form. Peptide text beside a SMILES is read from it. I, II: the chains in the order shown. Actinocin(9to1) = Cc1c2oc3c(C)ccc(C(=O)[*:1])c3nc-2c(C(=O)[*:2])c(N)c1=O; NMeV = CN[C@H](C(=O)O)C(C)C; Sar = CNCC(=O)O

Please review the entries below; each comes with its answer.
compound: CCCCCCCCCCCCCCCC[N+](C)(C)CC
Potency: 3.98 µM (active)
//
compound: COc1cc(NS(C)(=O)=O)ccc1Nc1c2ccccc2nc2ccccc12
Potency: 2 µM (active)
//
compound: Oc1c(I)cc(Cl)c2cccnc12
Potency: 8.91 µM (active)
//
compound: Cc1c2oc3c(C)ccc(C(=O)N[C@@H]4C(=O)N[C@H](C(C)C)C(=O)N5CCC[C@H]5C(=O)N(C)CC(=O)N(C)[C@@H](C(C)C)C(=O)O[C@@H]4C)c3nc-2c(C(=O)N[C@@H]2C(=O)N[C@H](C(C)C)C(=O)N3CCC[C@H]3C(=O)N(C)CC(=O)N(C)[C@@H](C(C)C)C(=O)O[C@@H]2C)c(N)c1=O (I: T[dV]P[Sar][NMeV] / II: T[dV]P[Sar][NMeV]; ester I:1-I:C, II:1-II:C; linker I:N-II:N via Actinocin(9to1))
Potency: 0.0035 µM (active)
//
compound: O=C(N/N=C/c1ccccc1O)c1ccncc1
Potency: 6.31 µM (active)

Attention now turns to another entry.
query: Field request: Potency | item: `CCOc1ccc2nc3cc(N)ccc3c(N)c2c1`
result: 7.94 µM (active)

###

- targetOrSystem: Rap guanine nucleotide exchange factor 4 (Homo sapiens) (UniProt Q8WZA2)
- Sequence (Q8WZA2 whole entry, looked up): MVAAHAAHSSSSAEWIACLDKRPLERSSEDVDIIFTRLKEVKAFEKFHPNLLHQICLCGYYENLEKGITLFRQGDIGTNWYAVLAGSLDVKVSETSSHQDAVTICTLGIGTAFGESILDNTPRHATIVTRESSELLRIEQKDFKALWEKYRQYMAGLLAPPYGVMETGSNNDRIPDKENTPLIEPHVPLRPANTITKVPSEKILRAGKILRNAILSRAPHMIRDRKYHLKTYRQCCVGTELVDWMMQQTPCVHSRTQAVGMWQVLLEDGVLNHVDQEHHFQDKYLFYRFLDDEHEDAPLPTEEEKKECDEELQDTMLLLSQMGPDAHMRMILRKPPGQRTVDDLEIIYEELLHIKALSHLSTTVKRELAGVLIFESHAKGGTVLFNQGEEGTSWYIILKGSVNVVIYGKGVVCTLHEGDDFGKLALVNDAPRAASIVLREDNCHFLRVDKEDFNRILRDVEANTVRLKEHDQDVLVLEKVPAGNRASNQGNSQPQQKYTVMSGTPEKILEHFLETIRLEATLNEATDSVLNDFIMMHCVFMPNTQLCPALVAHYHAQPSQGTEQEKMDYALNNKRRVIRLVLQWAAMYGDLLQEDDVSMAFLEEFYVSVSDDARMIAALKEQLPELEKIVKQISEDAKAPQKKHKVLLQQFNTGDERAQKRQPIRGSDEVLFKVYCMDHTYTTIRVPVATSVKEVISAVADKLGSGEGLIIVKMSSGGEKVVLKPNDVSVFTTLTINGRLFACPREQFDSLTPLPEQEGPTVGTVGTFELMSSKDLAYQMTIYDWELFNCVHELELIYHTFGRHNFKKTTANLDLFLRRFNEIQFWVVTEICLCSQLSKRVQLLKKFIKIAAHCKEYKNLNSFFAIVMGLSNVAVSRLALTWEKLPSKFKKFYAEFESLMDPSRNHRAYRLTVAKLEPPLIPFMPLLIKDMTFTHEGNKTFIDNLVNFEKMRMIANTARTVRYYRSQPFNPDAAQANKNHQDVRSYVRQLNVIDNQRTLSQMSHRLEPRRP
- assayText: Confirmatory qHTS for agonist of cAMP-regulated guanine nucleotide exchange factor 4 (EPAC2) (AID 1645884);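 further: nucleotide exchange releases bodipy-GDP from Rap1 and this lowers its fluorescence; nearly all actives have a fitted effect of over 65% in size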; on activation: on the % scale 0 is the no-effect control and ±100 the full control effect
- experimentalSetup: EPAC2 GEF activity, Rap1B-BODIPY-GDP fluorescence; series mostly up to 154 µM
Results filed as inconclusive are left out. Activity calls are given as the source filed them. Calls follow the shape of the dose curve; as a rule, active = well fitted activation curve with a large enough effect; inconclusive = small, poorly fitted or top-dose-only effect; inactive = no such curve, though single readings can be large or run the other way.
Pick from active, inactive when you respond.

molecule: COc1cccc2c1C(=O)c1c(O)c3c(c(O)c1C2=O)C[C@@](O)(C(C)=O)C[C@@H]3O[C@H]1C[C@H](N)[C@H](O)[C@H](C)O1
classLabel: inactive

molecule: CC(C)C[C@H]1C(=O)N2CCC[C@H]2[C@]2(O)O[C@](NC(=O)[C@@H]3C=C4c5cccc6[nH]c(Br)c(c56)C[C@H]4N(C)C3)(C(C)C)C(=O)N12
classLabel: inactive

molecule: CC(=O)Oc1ccc(C(c2ccc(OC(C)=O)cc2)c2ccccn2)cc1
classLabel: inactive

molecule: C#C[C@]1(OC(C)=O)CC[C@H]2[C@@H]3CCC4=C[C@@H](OC(C)=O)CC[C@@H]4[C@H]3CC[C@@]21C
classLabel: inactive

molecule: c1ccc(-c2ccc(C(c3ccccc3)n3ccnc3)cc2)cc1 (stereo unspecified)
classLabel: inactive

molecule: COc1ccc(/C=C/C(=O)c2ccc(OC)cc2OC)cc1
classLabel: inactive

molecule: Oc1ccc(Cl)cc1Sc1cc(Cl)ccc1O
classLabel: inactive

molecule: COc1cc2c(cc1O)CC[C@@H]1[C@@H]2CC[C@]2(C)[C@@H](O)CC[C@@H]12
classLabel: inactive

molecule: O=C1OC(c2ccc(O)cc2)(c2ccc(O)cc2)c2ccccc21
classLabel: inactive

molecule: O=C(Nc1ccc(Oc2ccc(Cl)cc2)c(Cl)c1)c1cc(I)cc(I)c1O
classLabel: inactive

Alright, here's another molecule for you.
query: Which outcome did this test record for the molecule `Cc1cc(N)c2cc(NC(=O)Nc3ccc4nc(C)cc(N)c4c3)ccc2n1` ?
result: active
